- experimental_system: Glutamate NMDA receptor
- assay_method_text: Displacement of [3H]CGP39653 from NMDA receptor in rat cortical membranes
property: log10 of Ki (log10 of the value in nM)

{"compound": "N[C@H](C[C@H]1CC(C(=O)O)=NN1Cc1ccccc1)C(=O)O (racemic)", "experimental_system": "Glutamate NMDA receptor", "property": "log10 of Ki", "observed_measurement": 3.15}
{"compound": "N[C@H](C[C@H]1CC(C(=O)O)=NN1)C(=O)O (racemic)", "experimental_system": "Glutamate NMDA receptor", "property": "log10 of Ki", "observed_measurement": 2.23}
{"compound": "N[C@H](C[C@@H]1CC(C(=O)O)=NN1)C(=O)O (racemic)", "experimental_system": "Glutamate NMDA receptor", "property": "log10 of Ki", "observed_measurement": 3.23}
{"compound": "N[C@H](C[C@H]1CC(C(=O)O)=NN1c1ccccc1)C(=O)O (racemic)", "experimental_system": "Glutamate NMDA receptor", "property": "log10 of Ki", "observed_measurement": 1.41}
{"compound": "N[C@H](C[C@@H]1CC(C(=O)O)=NN1c1ccccc1)C(=O)O (racemic)", "experimental_system": "Glutamate NMDA receptor", "property": "log10 of Ki", "observed_measurement": 2.30}
{"compound": "N[C@H](C[C@@H]1CC(C(=O)O)=NN1Cc1ccccc1)C(=O)O (racemic)", "experimental_system": "Glutamate NMDA receptor", "property": "log10 of Ki", "observed_measurement": 4.00}
